- System tested: MDM2 (Homo sapiens)
- Experiment description: Competitive fluorescence polarization assay for MDM2
- Assay type: binding
- Settings: competitive FP assay, MDM2; read-out: Ki (MDM2)
Where a SMILES comes first, the peptide text is derived from it. Bridges are numbered along the chain shown (N, C = ends). [ ]: non-standard residue; d: D form. R8 = C=CCCCCCC[C@@](C)(N)C(=O)O; Cba = N[C@@H](CC1CCC1)C(=O)O; S5 = C=CCCC[C@](C)(N)C(=O)O; Nle = CCCC[C@H](N)C(=O)O
Reported endpoint: Ki

INSERT INTO results (compound, reported_endpoint, value_observed) VALUES
  ('CCCC[C@H](NC(=O)[C@H](Cc1c[nH]c2ccccc12)NC(=O)[C@H](C)NC(=O)[C@]1(C)CCCC=CCCCCCC[C@@](C)(NC(=O)[C@H](Cc2ccccc2)NC(=O)[C@@H](NC(=O)[C@H](CC(C)C)NC(C)=O)[C@@H](C)O)C(=O)N[C@@H](CCC(=O)O)C(=O)N[C@@H](Cc2ccc(O)cc2)C(=O)N[C@@H](Cc2c[nH]c3ccccc23)C(=O)N[C@@H](C)C(=O)N[C@@H](CCC(N)=O)C(=O)N[C@@H](CC2CCC2)C(=O)N1)C(=O)N[C@@H](C)C(N)=O [compound 241] (Ac-LTF[R8]EYWAQ[Cba][S5]AW[Nle]A-NH2; staple 4-11)', 'Ki', '< 10 nM'),
  ('CCCC[C@H](NC(=O)[C@H](Cc1c[nH]c2ccccc12)NC(=O)[C@H](C)NC(=O)[C@]1(C)CCCC=CCCCCCC[C@@](C)(NC(=O)[C@H](Cc2ccccc2)NC(=O)[C@@H](NC(=O)[C@H](CCC(=O)O)NC(C)=O)[C@@H](C)O)C(=O)N[C@@H](C)C(=O)N[C@@H](Cc2ccc(O)cc2)C(=O)N[C@@H](Cc2c[nH]c3ccccc23)C(=O)N[C@@H](C)C(=O)N[C@@H](CCC(N)=O)C(=O)N[C@@H](CC(C)C)C(=O)N1)C(=O)N[C@H](C)C(N)=O [compound 276] (Ac-ETF[R8]AYWAQL[S5]AW[Nle][dA]-NH2; staple 4-11)', 'Ki', '< 10 nM');

====

- System tested: MDM2 (Homo sapiens, UniProt Q00987)
- Sequence (Q00987 1-125): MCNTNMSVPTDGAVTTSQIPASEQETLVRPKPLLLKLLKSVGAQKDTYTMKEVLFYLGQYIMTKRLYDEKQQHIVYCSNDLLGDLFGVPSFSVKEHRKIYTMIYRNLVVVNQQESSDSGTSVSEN
- Experiment description: Competitive fluorescence polarization assay for MDM2
- Type: binding
- Settings: competitive FP assay, MDM2; read-out: Ki (MDM2)
pKi: −log10 of the molar value. Where a SMILES comes first, the peptide text is derived from it. Bridges are numbered along the chain shown (N, C = ends). [ ]: non-standard residue; d: D form. R8 = C=CCCCCCC[C@@](C)(N)C(=O)O; Cba = N[C@@H](CC1CCC1)C(=O)O; hLeu = CC(C)CC[C@H](N)C(=O)O; S5 = C=CCCC[C@](C)(N)C(=O)O; Nle = CCCC[C@H](N)C(=O)O; Ac3c = NC1(C(=O)O)CC1; Aib = CC(C)(N)C(=O)O; Sar = CNCC(=O)O
Entries annotated with measured pKi
Reported endpoint: pKi

INSERT INTO assay_data (compound, value_observed) VALUES
  ('CC(=O)N[C@@H](CCC(=O)O)C(=O)N[C@H](C(=O)N[C@@H](Cc1ccccc1)C(=O)N[C@]1(C)CCCCCCC=CCCC[C@@](C)(C(=O)N[C@@H](CO)C(=O)N[C@@H](CC(C)C)C(=O)N[C@@H](C)C(N)=O)NC(=O)[C@H](CC(C)C)NC(=O)[C@H](CCC(N)=O)NC(=O)[C@H](C)NC(=O)[C@H](Cc2c[nH]c3ccccc23)NC(=O)[C@H](Cc2ccc(O)cc2)NC(=O)[C@H](C(C)C)NC1=O)[C@@H](C)O [compound 127] (Ac-ETF[R8]VYWAQL[S5]SLA-NH2; staple 4-11)', '> 8.00'),
  ('CC[C@H](C)[C@H](NC(=O)[C@H](C)NC(=O)[C@H](C)NC(=O)[C@]1(C)CCCC=CCCCCCC[C@@](C)(NC(=O)[C@H](Cc2ccccc2)NC(=O)[C@@H](NC(=O)[C@H](CC(C)C)NC(C)=O)[C@@H](C)O)C(=O)N[C@@H](CCC(=O)O)C(=O)N[C@@H](Cc2ccc(O)cc2)C(=O)N[C@@H](Cc2c[nH]c3ccccc23)C(=O)N[C@@H](C)C(=O)N[C@@H](CCC(N)=O)C(=O)N[C@@H](CC2CCC2)C(=O)N1)C(=O)N[C@H](C)C(N)=O [compound 247] (Ac-LTF[R8]EYWAQ[Cba][S5]AAI[dA]-NH2; staple 4-11)', '> 8.00'),
  ('CC(=O)N[C@@H](CC(C)C)C(=O)N[C@H](C(=O)N[C@@H](Cc1ccccc1)C(=O)N[C@]1(C)CCCCCCC=CCCC[C@@](C)(C(=O)N[C@@H](CO)C(=O)N[C@@H](C)C(=O)N[C@@H](C)C(N)=O)NC(=O)[C@H](CC2CCC2)NC(=O)[C@H](CCC(N)=O)NC(=O)[C@H](CO)NC(=O)[C@H](Cc2c[nH]c3ccccc23)NC(=O)[C@H](Cc2ccc(O)cc2)NC(=O)[C@H](CCC(=O)O)NC1=O)[C@@H](C)O (single isomer, unassigned)', '> 8.00'),
  ('CC(=O)N[C@@H](CC(C)C)C(=O)N[C@H](C(=O)N[C@@H](Cc1ccccc1)C(=O)N[C@]1(C)CCCCCCC=CCCC[C@@](C)(C(=O)N[C@@H](C)C(=O)N[C@@H](C)C(=O)N[C@@H](C)C(=O)N[C@H](C)C(N)=O)NC(=O)[C@H](CC(C)C)NC(=O)[C@H](CCC(N)=O)NC(=O)[C@H](C)NC(=O)[C@H](Cc2c[nH]c3ccccc23)NC(=O)[C@H](Cc2ccc(O)cc2)NC(=O)[C@H](C)NC1=O)[C@@H](C)O (single isomer, unassigned)', '> 8.00'),
  ('CC(=O)N[C@@H](CC(C)C)C(=O)N[C@H](C(=O)N[C@@H](Cc1ccccc1)C(=O)N[C@]1(C)CCCCCCC=CCCC[C@@](C)(C(=O)N[C@@H](C)C(=O)N[C@@H](C)C(=O)NC(C)(C)C(=O)N[C@@H](C)C(=O)N[C@@H](C)C(=O)N[C@H](C)C(N)=O)NC(=O)[C@H](CC(C)C)NC(=O)[C@H](CCC(N)=O)NC(=O)[C@H](C)NC(=O)[C@H](Cc2c[nH]c3ccccc23)NC(=O)[C@H](Cc2ccc(O)cc2)NC(=O)[C@H](CCC(=O)O)NC1=O)[C@@H](C)O [compound 563] (Ac-LTF[R8]EYWAQL[S5]AA[Aib]AA[dA]-NH2; staple 4-11)', '7.00 to 8.00'),
  ('CCCC[C@H](NC(=O)[C@H](C)NC(=O)[C@H](C)NC(=O)[C@]1(C)CCCC=CCCCCCC[C@@](C)(NC(=O)[C@H](Cc2ccccc2)NC(=O)[C@@H](NC(=O)[C@H](CC(C)C)NC(C)=O)[C@@H](C)O)C(=O)N[C@@H](CCC(=O)O)C(=O)N[C@@H](Cc2ccc(O)cc2)C(=O)N[C@@H](Cc2c[nH]c3ccccc23)C(=O)N[C@@H](C)C(=O)N[C@@H](CCC(N)=O)C(=O)N[C@@H](CCC(C)C)C(=O)N1)C(=O)N[C@@H](C)C(N)=O [compound 318] (Ac-LTF[R8]EYWAQ[hLeu][S5]AA[Nle]A-NH2; staple 4-11)', '7.00 to 8.00'),
  ('CC(=O)N[C@@H](CC(C)C)C(=O)N[C@H](C(=O)N[C@@H](Cc1ccccc1)C(=O)N[C@]1(C)CCCCCCC=CCCC[C@@](C)(C(=O)N[C@@H](C)C(=O)N(C)CC(=O)N[C@@H](C)C(=O)N[C@@H](C)C(=O)N[C@@H](C)C(=O)N[C@H](C)C(N)=O)NC(=O)[C@H](CC(C)C)NC(=O)[C@H](CCC(N)=O)NC(=O)[C@H](C)NC(=O)[C@H](Cc2c[nH]c3ccccc23)NC(=O)[C@H](Cc2ccc(O)cc2)NC(=O)[C@H](CCC(=O)O)NC1=O)[C@@H](C)O [compound 574] (Ac-LTF[R8]EYWAQL[S5]A[Sar]AAA[dA]-NH2; staple 4-11)', '> 8.00'),
  ('CSCC[C@H](NC(=O)[C@H](C)NC(=O)[C@H](C)NC(=O)[C@]1(C)CCCC=CCCCCCC[C@@](C)(NC(=O)[C@H](Cc2ccccc2)NC(C)=O)C(=O)N[C@@H](C)C(=O)N[C@@H](Cc2ccc(O)cc2)C(=O)N[C@@H](Cc2c[nH]c3ccccc23)C(=O)N[C@@H](CCC(=O)O)C(=O)NC2(CC2)C(=O)N[C@@H](CC(C)C)C(=O)N1)C(N)=O [compound 16] (Ac-F[R8]AYWE[Ac3c]L[S5]AAM-NH2; staple 2-9)', '> 8.00');
